Assay: Evaluation of blood-brain barrier (BBB) permeability through oral administration
Format: in vivo, mice
Conditions: mouse, in vivo; mice, oral, dose 30 mg/kg, 4 hr; read-out: Mean drug concentrations in brain tissue at 4 hr
Protocol: The blood-brain barrier (BBB) permeability was evaluated in mice, with respect to the compounds according to the present invention and the control (ibiglustat). […] The obtained supernatant was diluted with an 80% aqueous solution of acetonitrile containing 0.1% formic acid and then analyzed with an LC-MS/MS instrument. […] Each eluted material was detected through a mass spectrometer to calculate the drug concentrations thereof. […]
Label Criterion met when concentration at 4 h is strictly below 3000 ng/g; at or above that, label Criterion not met.

molecular-string	label-class
COc1ccc(-c2cc3c(cc2F)[C@H](NC(=O)O[C@@H]2CN4CCC2CC4)C(C)(C)C3)c(F)c1	Criterion not met
CC(C)COc1ccc(-c2cc3c(cc2F)[C@H](NC(=O)O[C@@H]2CN4CCC2CC4)C(C)(C)C3)cc1	Criterion met
CC(C)Oc1ccc(-c2cc3c(cc2F)[C@H](NC(=O)O[C@@H]2CN4CCC2CC4)C(C)(C)CC3)cc1F	Criterion not met
CC(C)Oc1ccc(-c2cc3c(cc2F)[C@H](NC(=O)O[C@@H]2CN4CCC2CC4)C(C)(C)CC3)cc1	Criterion not met
COc1ccc(-c2cc3c(cc2F)[C@H](NC(=O)O[C@@H]2CN4CCC2CC4)C(C)(C)CC3)c(F)c1	Criterion met
CCCOc1ccc(-c2cc3c(cc2F)[C@H](NC(=O)O[C@@H]2CN4CCC2CC4)C(C)(C)C3)cc1	Criterion not met
